protocolSummary: in vitro
measurementContext: human, WI 38 normal cells
readout: viability at 24 h, 0.4 µM (%)
Please respond with the number in % and leave the unit unwritten.

Task: Quick check: viability at 24 h, 0.4 µM of COc1cccc2c1C(=O)c1c(O)c3c(c(O)c1C2=O)C[C@@](O)(C(=O)CO)C[C@@H]3O[C@H]1C[C@H](N)[C@H](O)[C@H](C)O1 [Doxorubicin, doxorubicin, reference compound] ?
Output: 74.5

###

protocolSummary: in vitro
measurementContext: human, WI 38 normal cells
readout: viability at 24 h, 100 µM (%)
Kindly answer with a numeric value in %, unit omitted.

Task: Reported viability at 24 h, 100 µM, compound COc1cccc2c1C(=O)c1c(O)c3c(c(O)c1C2=O)C[C@@](O)(C(=O)CO)C[C@@H]3O[C@H]1C[C@H](N)[C@H](O)[C@H](C)O1 [Doxorubicin, doxorubicin, reference compound] : ____
Output: 38.4

###

protocolSummary: in vitro
measurementContext: human, WI 38 normal cells
readout: viability at 24 h, 6.3 µM (%)
Response body: numeric value in %, unit text excluded.

Task: Name the reported viability at 24 h, 6.3 µM value associated with the compound COc1cccc2c1C(=O)c1c(O)c3c(c(O)c1C2=O)C[C@@](O)(C(=O)CO)C[C@@H]3O[C@H]1C[C@H](N)[C@H](O)[C@H](C)O1 [Doxorubicin, doxorubicin, reference compound]
Output: 52.4

###

protocolSummary: in vitro
measurementContext: human, WI 38 normal cells
readout: viability at 24 h, 1.6 µM (%)
The reply should be a number in %, with the unit left off.

Task: Look up viability at 24 h, 1.6 µM: COc1cccc2c1C(=O)c1c(O)c3c(c(O)c1C2=O)C[C@@](O)(C(=O)CO)C[C@@H]3O[C@H]1C[C@H](N)[C@H](O)[C@H](C)O1 [Doxorubicin, doxorubicin, reference compound]
Output: 63.2

###

System: renal RXF393 cancer cell line
protocolSummary: MTT cell viability assay
measurementContext: RXF393; MTT
readout: IC50

Task: # input compound: COc1cccc2c1C(=O)c1c(O)c3c(c(O)c1C2=O)C[C@@](O)(C(=O)CO)C[C@@H]3O[C@H]1C[C@H](N)[C@H](O)[C@H](C)O1 [Doxorubicin, doxorubicin, reference compound] ; wanted: its IC50
Output: 13.5 µM

###

protocolSummary: in vitro
measurementContext: human, WI 38 normal cells
readout: viability at 24 h, 25 µM (%)
Provide the reading as a plain figure in %.

Task: Quick check: viability at 24 h, 25 µM of COc1cccc2c1C(=O)c1c(O)c3c(c(O)c1C2=O)C[C@@](O)(C(=O)CO)C[C@@H]3O[C@H]1C[C@H](N)[C@H](O)[C@H](C)O1 [Doxorubicin, doxorubicin, reference compound] ?
Output: 46.6

Origin of values: paper PMC11766273
